Known soluble fraction (log2) of a selection of sequences
- protocol summary: soluble fraction after stress (log2 fold change); higher = more stays soluble; pooled small domains, quantitative proteomics;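 further: 20 min heating vs room temperature control held 20 min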
- assay context: stress: 75 degC
quantity measured: soluble fraction (log2)

>>> reading("HMNVVSIEHIRTHLQNHLSLIGRSIEESFNEAKVIAFVASLFLTHRGYASVSQDMGTNGEIYLQDLW")
-0.465
>>> reading("HMEVSVPDFTGMSKSDAQNAAKEAGLTVNFEEDYDNQVPAGQVIRSNPSAGEKVKKNSSVTVTLSKGSN")
0.128
>>> reading("HMATEYIIPTVTNKKLEEAIGIAQLRGFEISVDEYKPSDIDEGTVLEQSPAAGTNAKQGDTISVTVSSG")
0.476
>>> reading("HMSDIDHIAGRRIRQARLNAGMTLETLASQAGISKALLSKIENSKVSSPLATFSKISKVLGVPLSDLLKE")
-0.748
>>> reading("HMADAGQTTAATELKQAPNAGSATISQLSAGQTLQIGTRQGAWYQVKTPQGEGWVRMLSVRLQ")
-0.0302
>>> reading("HMGKSETALELIKRGHRLIADDAVEITRIGSTLSGTAPELIRNYLEVRGVGVIDVEKLFGVGAVQDSTQI")
0.0405
>>> reading("HMIPRGFSRYYILELLQKKPHTGKEIIDNAIKESGGRWNPSPGLIYPLLGRLLDENLIEETNDGKYK")
-2.24
>>> reading("HMRMSQLSRLISILTLLKSKRLLTATELAEKYDVSIRTVYRDIRKLEEAGIPVYTIEGRGYSLMDNYT")
-1.42
>>> reading("HMEEDPVIAAQRFLNIFRQLHIFTAAKRKEFDELLLKQPASVKGMFASLPGGSVLQEYVNNLEQNAG")
-0.564
>>> reading("HMEYQSLVLDFLEQGDFNAEKLKDYQRAFAKQNGMQTLPSKSQILQAYFQLVEEKKINKNSDFELLLRKR")
-0.32
>>> reading("HMDSDMGQQLKTLLTVGTFMSSKELKAIAQQLGLKKPTDLKEWVELESGTQRIEGKPTKGYWIKMNDINN")
-0.367
>>> reading("HMLSVRQRMGELLERLADGQFHRFESLFTVEEGKLGVVVTFLGLLTLAKEQLLDIVQEGPTAPIYVKSLA")
-0.569
>>> reading("HMAESNQIQLSDVREALNMIGPASWLDLVHYLDTGKGRGGQRLRRMLKSLSRSGEIELVARGTYQITDN")
-0.437
>>> reading("HMPNPALESARPAFEAFLSRFSDGEAMRGPAWGLWSLLHRKGNAPTASHAAGRDGMGVLAFLRHWQWG")
-0.452
>>> reading("HMIDLPEAFIQQLKEAVDVGDVTGLRELLGQLRRRYPQQSALSDEAERLLREFDFERLAQLFEGLD")
-1.67
>>> reading("HMRQVFPNPSSSQIKLASSRIGQAFSILDQQGRVVLSGKVSEEAVIALENLAKGIYVLKIGSWSETILK")
-2.89
>>> reading("HMVNVTEAIDLENGTGKLSGTFNHEPKSAEEIIFLLKIDTNKWKLSQYWNKQMGDHWRVSALISQI")
-2.82
>>> reading("HMEAYSAEAVRFRIKAMIESETVDDVMSDDKIVERLLADGVDIARRTVAKYREAMNIPSSVKRRRKLKGM")
-1.92
>>> reading("HMNDLIKMPYLVGQLYDDVASNQEYADFQFKITEGNDPDKQPGEIMKQDPAADIMVKKNAEVELLVNG")
0.374
>>> reading("HMKEIGGGPASKFIYYLIKTKHPIEQGDLIGITHLPRRTVQSAIEDLKNQGFIIERNSLDDSRRKVYYPVK")
-0.943
>>> reading("HMKDEHYLYIKARVDNGDYPHLSELKSAEEIELVMPKLLQDGIVEFNKETGEYTIGEDVKAEIERL")
0.12
>>> reading("HMSNRFIQFRQRAIDWLNSDRDFNAGILLLEESGFKPGVVAKLKRHGVNGPEAKKRLKFLINELVKAWA")
-1.2

Ref: the domain aggregation screens of Martell et al. (2025)
